System: Plasma
protocolNotes: Stability in SPF Rattus norvegicus (rat) plasma assessed as berberine formation at 100 mg/kg, po
Assay type: ADME, organism-based
Set-up: dose 100 mg/kg, route oral
runParameters: in vivo

{"compound": "COc1ccc2cc3[n+](cc2c1OC[C@H](O)[C@H](O)CO)CCc1cc2c(cc1-3)OCO2", "Stability": "Unstable"}
{"compound": "COc1ccc2cc3[n+](cc2c1OC1OC[C@@H](O)[C@@H](O)[C@@H]1O)CCc1cc2c(cc1-3)OCO2 (some centres undefined)", "Stability": "Unstable"}
{"compound": "COc1ccc2cc3[n+](cc2c1OC1O[C@H](CO)[C@@H](O)[C@H](O)[C@H]1O)CCc1cc2c(cc1-3)OCO2 (some centres undefined)", "Stability": "Unstable"}

---

Test system: Rattus norvegicus
protocolNotes: Half life in SPF Rattus norvegicus (rat) at 100 mg/kg, po
Assay type: ADME, organism-based
Design: dose 100 mg/kg, route oral
runParameters: in vivo
measuredEndpoint: t1/2 (h)

{"compound": "COc1ccc2cc3[n+](cc2c1OC1OC[C@@H](O)[C@@H](O)[C@@H]1O)CCc1cc2c(cc1-3)OCO2 (stereo partly specified) [9-O-ARABINOSYL-BERBERINE]", "measuredEndpoint": "t1/2", "displayUnit": "h", "recordedMeasurement": 7.43}
{"compound": "COc1ccc2cc3[n+](cc2c1OC1O[C@H](CO)[C@@H](O)[C@H](O)[C@H]1O)CCc1cc2c(cc1-3)OCO2 (stereo partly specified) [9-O-GLUCOSYL-BERBERINE]", "measuredEndpoint": "t1/2", "displayUnit": "h", "recordedMeasurement": 7.58}
{"compound": "CCCCCCCCCCCCOc1c(OC)ccc2cc3[n+](cc12)CCc1cc2c(cc1-3)OCO2 [9-O-DODECYL-BERBERINE]", "measuredEndpoint": "t1/2", "displayUnit": "h", "recordedMeasurement": 7.86}
{"compound": "CCCCCCCCOc1c(OC)ccc2cc3[n+](cc12)CCc1cc2c(cc1-3)OCO2 [9-O-OCTYL-BERBERINE]", "measuredEndpoint": "t1/2", "displayUnit": "h", "recordedMeasurement": 7.85}
{"compound": "COc1ccc2cc3[n+](cc2c1OC[C@H](O)[C@H](O)CO)CCc1cc2c(cc1-3)OCO2 [9-O-ERYTHROL-BERBERINE]", "measuredEndpoint": "t1/2", "displayUnit": "h", "recordedMeasurement": 7.31}
{"compound": "COc1ccc2cc3[n+](cc2c1OC)CCc1cc2c(cc1-3)OCO2 [BERBERINE]", "measuredEndpoint": "t1/2", "displayUnit": "h", "recordedMeasurement": 7.88}

---

Test system: Rattus norvegicus
protocolNotes: Cmax in SPF Rattus norvegicus (rat) at 100 mg/kg, po
Assay type: ADME, organism-based
Parameters: dose 100 mg/kg, route oral
runParameters: in vivo
measuredEndpoint: Cmax (ng/mL)

{"compound": "COc1ccc2cc3[n+](cc2c1OC1OC[C@@H](O)[C@@H](O)[C@@H]1O)CCc1cc2c(cc1-3)OCO2 (some centres undefined) [9-O-ARABINOSYL-BERBERINE]", "Cmax (ng/mL)": 48.7}

1 = CCCCCCCCOc1c(OC)ccc2cc3[n+](cc12)CCc1cc2c(cc1-3)OCO2 [9-O-OCTYL-BERBERINE]
2 = COc1ccc2cc3[n+](cc2c1OC[C@H](O)[C@H](O)CO)CCc1cc2c(cc1-3)OCO2 [9-O-ERYTHROL-BERBERINE]
3 = COc1ccc2cc3[n+](cc2c1OC)CCc1cc2c(cc1-3)OCO2 [BERBERINE]
Query block: Please produce an ascending ranking of these compounds based on Cmax. Write out the labels following the order that was asked for.
Result block: 1, 3, 2
